# targetOfAssay: wt IDH1 (Homo sapiens, UniProt O75874)
# Construct: made in house; host or cells: Escherichia coli BL21(DE3) pLyS
# Sequence (O75874 whole entry): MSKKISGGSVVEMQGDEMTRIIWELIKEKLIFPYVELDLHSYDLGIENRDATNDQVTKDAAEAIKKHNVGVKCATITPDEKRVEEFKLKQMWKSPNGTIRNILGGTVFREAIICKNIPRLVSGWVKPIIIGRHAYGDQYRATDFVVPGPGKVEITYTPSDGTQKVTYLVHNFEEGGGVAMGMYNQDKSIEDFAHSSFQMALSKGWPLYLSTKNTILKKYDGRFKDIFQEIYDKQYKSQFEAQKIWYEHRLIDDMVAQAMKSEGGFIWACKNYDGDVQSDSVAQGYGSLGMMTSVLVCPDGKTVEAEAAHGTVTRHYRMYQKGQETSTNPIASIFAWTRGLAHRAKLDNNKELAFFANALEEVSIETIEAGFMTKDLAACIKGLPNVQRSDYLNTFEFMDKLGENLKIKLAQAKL
# assayExplanation: Circular dichroism (CD) melting temperature, wt IDH1
# Format: binding
# setupConditions: inhibitor 42 μM, IDH 4.2 μM (0.2 mg/mL); read-out: Δ Tm/°C by CD wt IDH1
measuredAttribute: ΔTm at 42 µM (°C)

Consider the following illustrative entries.
> print(dat)
                                   molecule  quantityunit  reportedvalue
1  N#Cc1ccnc(N2C(=O)CC[C@H]2C(=O)N(c2cncc(F)c2)[C@H](C(=O)NC2CC(F)(F)C2)c2ccccc2Cl)c1            °C            7.6
2  COc1c(C)cc(NC(=O)c2nn(Cc3ccc(F)cc3)c3c2CN(C(=O)c2ccc[nH]2)C[C@]3(C)C(N)=O)cc1C            °C            6.7

P. C[C@@H](Nc1nc(N[C@H](C)C(F)(F)F)nc(-c2cccc(Cl)n2)n1)C(F)(F)F
Q. CC(C)(O)CNc1nc(Nc2ccnc(C(F)(F)F)c2)nc(-c2cccc(C(F)(F)F)n2)n1
R. Cc1ccccc1C(C(=O)NC1CCCCC1)N(C(=O)Cn1ccnc1C)c1cccc(F)c1 (stereo not drawn)
S. CC(C)(C)CC(C)(C)c1cc(Cn2ccnc2)c(O)c(Cn2ccnc2)c1
query: Would you mind ranking these molecules by ascending ΔTm at 42 µM? Reply format: the labels, ordered as requested.
result: S, R, Q, P
